All figures here come from ChEMBL document CHEMBL6083182.

# experiment.description: Cytotoxicity against human MCF-10A cells assessed as decrease in cell viability incubated for 24 hrs by CCK-8 assay
# Format: toxicity, cell-based
metric.name: IC50 at 24 h (nM)
Quick note: give the figure in nM, leave out the unit.

Query :: IC50 at 24 h for `Nc1ccn([C@@H]2O[C@H](CO)[C@@H](O)C2(F)F)c(=O)n1` ?
Result :: 3230

Query :: Recorded IC50 at 24 h for `COc1cccc2c1C(=O)c1c(O)c3c(c(O)c1C2=O)C[C@@](O)(C(=O)CO)C[C@@H]3O[C@H]1C[C@H](N)[C@H](O)[C@H](C)O1` , please?
Result :: 121
